# Experiment: Octanol/water distribution co-efficient, log D of the compound at pH 7.4
# Format: physicochemical
Catalogue of logD values
Readout label: logD

>>> recorded_value("Cc1nsc(N2C[C@H]3CC[C@@H](C2)[C@@H]3Nc2nc3c(OCC4COC4)cccn3n2)n1")
2.26
>>> recorded_value("Cc1nnc(N2C[C@H]3CC[C@@H](C2)[C@@H]3Nc2nc3c(OC(C)C(F)(F)F)ccc(C(F)(F)F)n3n2)o1 (stereo partly specified)")
3.58
>>> recorded_value("Cc1noc(N2C[C@H]3CC[C@@H](C2)[C@@H]3Nc2nc3c(OCC(F)(F)C(F)(F)F)cccn3n2)n1")
3.57
>>> recorded_value("Cc1nsc(N2C[C@H]3CC[C@@H](C2)[C@@H]3Nc2nc3c(O[C@@H](C)C(F)(F)F)cccn3n2)n1")
3.69
>>> recorded_value("Cc1nsc(N2C[C@H]3CC[C@@H](C2)[C@@H]3Nc2nc3c(OC(F)(F)F)cccn3n2)n1")
3.3
>>> recorded_value("Cc1noc(N2C[C@H]3CC[C@@H](C2)[C@@H]3Nc2nc3c(OCC(F)(F)F)cccn3n2)n1")
1.79
>>> recorded_value("Cc1nnc(N2C[C@H]3CC[C@@H](C2)[C@@H]3Nc2nc3c(OC(C)C(F)(F)F)cccn3n2)o1 (stereo partly specified)")
2.68
>>> recorded_value("Cc1noc(N2C[C@H]3CC[C@@H](C2)[C@@H]3Nc2nc3c(OCC(F)(F)F)ccc(C(F)(F)F)n3n2)n1")
3.79
>>> recorded_value("FC(F)(F)COc1cccn2nc(N[C@@H]3[C@@H]4CC[C@H]3CN(c3ccnc(C(F)(F)F)c3)C4)nc12")
4.04
>>> recorded_value("Cc1cc(N2C[C@H]3CC[C@@H](C2)[C@@H]3Nc2nc3c(OCC(F)F)ccc(C(F)(F)F)n3n2)ncn1")
3.9
>>> recorded_value("COc1cccn2nc(N[C@@H]3[C@@H]4CC[C@H]3CN(c3nc(C)ns3)C4)nc12")
2.59
>>> recorded_value("Cc1nsc(N2C[C@H]3CC[C@@H](C2)[C@@H]3Nc2nc3c(OCC(F)(F)F)cccn3n2)n1")
3.17
